pIC50 values for the molecules below.
target: HBV core protein (UniProt P03146); assay type: biochemical; conditions: read-out: Assembly Activity (IC50); BODIPY-FL labelled core protein, assembly started with NaCl, read after 6 min
Sequence (P03146 whole entry, looked up): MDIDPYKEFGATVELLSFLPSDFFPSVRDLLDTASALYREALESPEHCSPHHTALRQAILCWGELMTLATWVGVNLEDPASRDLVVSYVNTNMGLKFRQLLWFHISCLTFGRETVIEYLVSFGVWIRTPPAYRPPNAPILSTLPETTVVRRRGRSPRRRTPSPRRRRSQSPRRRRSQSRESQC
pIC50: −log10 of the molar value.

Some molecules with recorded pIC50:
(Q) Test system HBV core protein (UniProt P03146); read-out pIC50; what value for O=C(c1cc2ccccc2[nH]1)N1CCc2nc(NCC3CCCCO3)sc2C1 (centres unmarked) ?
(A) 5.00 to 5.30

(Q) Item: O=C(c1cc2ccccc2[nH]1)N1CCc2nc(NCC3CCCO3)sc2C1 (centres unmarked)
(A) > 5.30

(Q) Item: Nc1nc2c(s1)CN(C(=O)c1cc3c(CO)cccc3[nH]1)CC2
(A) 5.00 to 5.30

(Q) Item: CC(C)(C)NC(=O)Nc1nc2c(s1)CN(C(=O)c1cc3ccccc3[nH]1)CC2
(A) 5.00 to 5.30

Others:
(Q) Test system HBV core protein (UniProt P03146); read-out pIC50; what value for O=C(c1cc2c(C(F)(F)F)cccc2[nH]1)N1CCc2nc(NCC3CCOC3)sc2C1 (centres unmarked) ?
(A) 5.00 to 5.30

###

pIC50 values for the compounds below.
target: HBV core protein (UniProt P03146); assay type: biochemical; details: read-out: Assembly Activity (IC50); BODIPY-FL labelled core protein, assembly started with NaCl, read after 6 min
pIC50: −log10 of the molar value.

(Q) Consider the compound shown here: O=C(c1cc2cc(F)c(Cl)cc2[nH]1)N1CCc2nc(NCC3CCOC3)sc2C1 (centres unmarked) What is its recorded pIC50?
(A) > 5.30

(Q) Item: NCCNc1nc2c(s1)CN(C(=O)c1cc3ccccc3[nH]1)CC2
(A) 5.00 to 5.30

(Q) Item: CCc1cc(F)cc2[nH]c(C(=O)N3CCc4nc(NCC5(O)CCC5)sc4C3)cc12
(A) > 5.30

(Q) Item: O=C(c1cc2ccccc2[nH]1)N1CCc2nc(CNCC3CCOC3)sc2C1 (centres unmarked)
(A) > 4.00

(Q) Item: Cc1cc(C)c2cc(C(=O)N3CCc4nc(N)sc4C3)[nH]c2c1
(A) > 5.30

(Q) Item: O=C(c1cc2cc(F)c(Cl)cc2[nH]1)N1CCc2nc(NCC3(CO)CC3)sc2C1
(A) > 5.30

(Q) Item: CC(O)CNc1nc2c(s1)CN(C(=O)c1cc3ccccc3[nH]1)CC2 (stereo in doubt) [Example 131]
(A) > 5.30

Next item in the queue.
(Q) Consider the compound shown here: O=C(c1cc2c(Cl)c(F)ccc2[nH]1)N1CCc2nc(NCC3(O)CCC3)sc2C1 What is its recorded pIC50?
(A) > 5.30

###

target: HBV core protein (UniProt P03146); format: biochemical; details: read-out: Assembly Activity (IC50); BODIPY-FL labelled core protein, assembly started with NaCl, read after 6 min
pIC50: −log10 of the molar value.
assay_metric: pIC50

(Q) Consider the compound shown here: Cc1cc(F)cc2[nH]c(C(=O)N3CCc4nc(N[C@H]5CC[C@@H](O)CC5)sc4C3)cc12 What is its recorded pIC50?
(A) > 5.30

(Q) Item: CCc1ccc(F)c2[nH]c(C(=O)N3CCc4nc(N)sc4C3)cc12
(A) > 5.30

(Q) Item: CC(C)[C@H](N)C(=O)OCC1(CNc2nc3c(s2)CN(C(=O)c2cc4c(Cl)cc(F)cc4[nH]2)CC3)CC1
(A) > 5.30

(Q) Item: Cc1cccc2[nH]c(C(=O)N3CCc4nc(N)sc4C3)cc12
(A) > 5.30

(Q) Item: CN1CCN(CCNc2nc3c(s2)CN(C(=O)c2cc4ccccc4[nH]2)CC3)CC1
(A) > 5.30

(Q) Item: O=C(c1cc2ccccc2[nH]1)N1CCc2nc(N3CCOCC3)sc2C1
(A) > 4.00

###

molecular target: HBV core protein (UniProt P03146); format: biochemical; conditions: read-out: Assembly Activity (IC50); BODIPY-FL labelled core protein, assembly started with NaCl, read after 6 min
assay_metric: IC50

Some molecules with recorded IC50:
(Q) Consider the molecule shown here: O=C1CC(C(=O)Nc2nc3c(s2)CN(C(=O)c2cc4ccccc4[nH]2)CC3)CCN1 (centres unmarked) What is its recorded IC50?
(A) < 5 µM

(Q) Item: Nc1nc2c(s1)CN(C(=O)c1cc3c(Cl)c(F)ccc3[nH]1)CC2
(A) < 5 µM

(Q) Item: O=C(c1cc2ccccc2[nH]1)N1CCc2nc(NC3CC(F)(F)C3)sc2C1
(A) 5 to 10 µM

(Q) Item: O=C(c1cc2c(Cl)cc(F)cc2[nH]1)N1CCc2nc(NC3CCOC3)sc2C1 (centres unmarked)
(A) < 5 µM

(Q) Item: CC(F)(F)c1cc(F)cc2[nH]c(C(=O)N3CCc4nc(NC(=O)C5CCOCC5)sc4C3)cc12
(A) < 5 µM

(Q) Item: O=C(c1cc2ccccc2[nH]1)N1CCc2nc(NC[C@H]3CCCC[C@@H]3O)sc2C1
(A) 5 to 10 µM

(Q) Item: O=C(c1cc2ccccc2[nH]1)N1CCc2nc(CN3CCOCC3)sc2C1
(A) < 5 µM

Next item in the queue.
(Q) Consider the molecule shown here: O=C(c1cc2ccccc2[nH]1)N1CCc2nc(NCC3COCCO3)sc2C1 (centres unmarked) What is its recorded IC50?
(A) < 5 µM

###

target: HBV core protein (UniProt P03146); format: biochemical; details: read-out: Assembly Activity (IC50); BODIPY-FL labelled core protein, assembly started with NaCl, read after 6 min
pIC50: −log10 of the molar value.
pIC50 values for the molecules below.

Some molecules with recorded pIC50:
(Q) Consider the molecule shown here: C[C@H](O)CNc1nc2c(s1)CN(C(=O)c1cc3ccccc3[nH]1)CC2 What is its recorded pIC50?
(A) > 5.30

(Q) Item: CNC(=O)Nc1nc2c(s1)CN(C(=O)c1cc3c(Cl)cc(F)cc3[nH]1)CC2
(A) > 5.30

(Q) Item: Nc1nc2c(s1)CN(C(=O)c1cc3c(Br)ccc(F)c3[nH]1)CC2
(A) > 5.30

Others:
(Q) Consider the molecule shown here: O=C(c1cc2c(F)c(F)ccc2[nH]1)N1CCc2nc(NCC3(O)CCC3)sc2C1 What is its recorded pIC50?
(A) > 5.30

(Q) Item: O=C(c1cc2ccccc2[nH]1)N1CCc2nc(NCC3CCC3)sc2C1
(A) 5.00 to 5.30

(Q) Item: O=C(c1cc2ccccc2[nH]1)N1CCc2nc(NC[C@@H]3COC[C@@H]3O)sc2C1
(A) > 5.30

(Q) Item: CC(C)(C)OC(=O)N1CCC(O)(CNc2nc3c(s2)CN(C(=O)c2cc4ccccc4[nH]2)CC3)CC1
(A) 5.00 to 5.30

###

molecular target: HBV core protein (UniProt P03146); type: biochemical; settings: read-out: Assembly Activity (IC50); BODIPY-FL labelled core protein, assembly started with NaCl, read after 6 min
pIC50: −log10 of the molar value.
pIC50 values for the molecules below.

Some molecules with recorded pIC50:
(Q) Consider the molecule shown here: CC(C)(C)OC(=O)N1CCOC(CNc2nc3c(s2)CN(C(=O)c2cc4ccccc4[nH]2)CC3)C1 (stereo not shown) [Example 273] What is its recorded pIC50?
(A) 5.00 to 5.30

(Q) Item: O=C(c1cc2ccccc2[nH]1)N1CCc2nc(N[C@H]3CCCC[C@@H]3O)sc2C1 [Example 47]
(A) > 5.30

(Q) Item: Nc1nc2c(s1)CN(C(=O)c1cc3ccc(Cl)c(F)c3[nH]1)CC2 [Example 407]
(A) > 5.30

(Q) Item: CCc1cc(F)cc2[nH]c(C(=O)N3CCc4nc(NCC5(CO)CC5)sc4C3)cc12 [Example 248]
(A) > 5.30

(Q) Item: N#Cc1ccc2cc(C(=O)N3CCc4nc(N)sc4C3)[nH]c2c1 [Example 17]
(A) > 4.00

Others:
(Q) Consider the molecule shown here: COC1COCCC1Nc1nc2c(s1)CN(C(=O)c1cc3ccccc3[nH]1)CC2 (stereo not shown) [Example 231] What is its recorded pIC50?
(A) 5.00 to 5.30

(Q) Item: Nc1nc2c(s1)CN(C(=O)c1cc3ccc(C(F)(F)F)cc3[nH]1)CC2 [Example 199]
(A) > 5.30

(Q) Item: Cc1nc2c(s1)CN(C(=O)c1cc3cc(F)c(F)cc3[nH]1)CC2 [Example 164]
(A) > 5.30

###

pIC50 values for the molecules below.
target: UniProtKB P03146; format: biochemical; settings: read-out: Assembly Activity (IC50); BODIPY-FL labelled core protein, assembly started with NaCl, read after 6 min
pIC50: −log10 of the molar value.

Some molecules with recorded pIC50:
(Q) Consider the molecule shown here: CCC(C)(C)CC(=O)Nc1nc2c(s1)CN(C(=O)c1cc3ccccc3[nH]1)CC2 What is its recorded pIC50?
(A) > 4.00

(Q) Item: Nc1nc2c(s1)CN(C(=O)c1cc3ccc(Cl)cc3[nH]1)CC2
(A) > 5.30

(Q) Item: CC(=O)N1CCC(CNc2nc3c(s2)CN(C(=O)c2cc4ccccc4[nH]2)CC3)C1 (centres unmarked)
(A) > 5.30

(Q) Item: Nc1nc2c(s1)CN(C(=O)c1cc3cc(Cl)ccc3[nH]1)CC2
(A) > 5.30

(Q) Item: CCOc1nc2c(s1)CN(C(=O)c1cc3ccccc3[nH]1)CC2
(A) > 4.00

(Q) Item: Cc1cc(F)cc2[nH]c(C(=O)N3CCc4nc(NCC5(CO)CC5)sc4C3)cc12
(A) > 5.30

Others:
(Q) Consider the molecule shown here: O=C(c1cc2ccc(Cl)cc2[nH]1)N1CCc2nc(N[C@H]3CC[C@@H](O)CC3)sc2C1 What is its recorded pIC50?
(A) > 5.30

(Q) Item: O=C(c1cc2ccccc2[nH]1)N1CCc2nc(O)sc2C1
(A) > 4.00

(Q) Item: Cc1cccc2[nH]c(C(=O)N3CCc4nc(N(C)C)sc4C3)cc12
(A) > 4.00
